System: A549 NSCLC
Test: NCI tumour cell line growth inhibition, 48 h
Recorded TGI by entry
quantity_name: TGI (µM)

>>> reported_result("N#C/C(=C\\c1cn(Cc2ccccc2)c2ccccc12)c1nn(-c2ccccc2)c(N)c1C#N")
24.6
>>> reported_result("COC(=O)c1c(O)ccc2c1c1c(n2Cc2ccccc2)C(=O)c2ccccc2C1=O")
22.6
>>> reported_result("CC(=O)C(I(OS(=O)(=O)c1ccc(C)cc1)c1ccccc1)=P(c1ccccc1)(c1ccccc1)c1ccccc1")
72.8
>>> reported_result("COc1cc2c(cc1OCCCOc1cc3c(cc1OC)C(=O)N1C[C@H](F)C[C@H]1C=N3)N=C[C@@H]1C[C@@H](F)CN1C2=O")
28.5

* * *

System: UACC-62 melanoma
Experiment: NCI tumour cell line growth inhibition, 48 h
quantity_name: TGI

>>> reported_result("Cc1oc2c(c1C)S(=O)(=O)C(C#N)=C(c1ccccc1)N2")
"> 100 µM"
>>> reported_result("CC12CCC3[C@@H](CC3(C)C)C(O)(CCC1=O)C2 (stereo partly specified)")
"> 100 µM"
>>> reported_result("CCOC(=O)C(C(=O)OCC)=C1NC2(c3ccccc3Nc3ccc(C)cc32)C(C#N)S1 (stereo unspecified)")
"26.8 µM"
>>> reported_result("CN(C)C=Nc1cccc2nsnc12")
"> 100 µM"
>>> reported_result("CC(=O)C(I(OS(=O)(=O)c1ccc(C)cc1)c1ccccc1)=P(c1ccccc1)(c1ccccc1)c1ccccc1")
"17 µM"
>>> reported_result("OC1(CCc2ccccc2)COC(C(F)(F)F)(C(F)(F)F)C1 (stereo unspecified)")
"> 100 µM"
>>> reported_result("COc1cc(/C=C/C(=O)CC(=O)/C=C/c2cc(OC)c(OC)c(OC)c2)cc(OC)c1OC")
"13.4 µM"
>>> reported_result("CCOC(=O)C(N)C[S][Sn]([CH3])([CH3])[Cl] (stereo unspecified)")
"> 100 µM"
>>> reported_result("O=C(N/N=C/c1ccc2c(c1)OCO2)Nc1ccccc1Cl")
"> 83.1 µM"
>>> reported_result("Cc1cc(Cl)ccc1NC(=O)CCCC(=O)C1CCCC1=O (stereo unspecified)")
"> 100 µM"
>>> reported_result("CCN1CCN(C(=O)[C@]23CC[C@@H](C)[C@H](C)[C@@H]2C2=CC[C@@H]4[C@@]5(C)C/C(=C/c6ccncc6)C(=O)C(C)(C)[C@@H]5CC[C@@]4(C)[C@]2(C)CC3)CC1")
"2.87 µM"
>>> reported_result("Nc1c(C(=O)c2ccc(Cl)cc2)sc(Nc2ccccc2)c1-c1nc2ccccc2s1")
"> 100 µM"
>>> reported_result("C[C@]12C[C@H](c3ccccc3)Nc3ccccc3N1C(c1ccccc1)=NO2")
"> 100 µM"
>>> reported_result("O=[n+]1c2ccccc2n([O-])c2ccccc21")
"> 100 µM"
>>> reported_result("O=C1c2ccccc2-c2c1c1ccccc1c(=O)n2CCCNCCCn1ccnc1")
"5.95 µM"
>>> reported_result("Nc1ccc(N(S(=O)(=O)c2ccccc2)S(=O)(=O)c2ccccc2)c(Cl)c1")
"> 100 µM"
>>> reported_result("COC(=O)C(Cc1c[nH]c2ccccc12)N=C1Nc2ccncc2S(=O)(=O)N1c1ccccc1 (stereo unspecified)")
"58.2 µM"
>>> reported_result("CCN(CC)c1cc2c3c(c1)CCCN3CCC2")
"> 10 µM"
>>> reported_result("Cn1c([N+](=O)[O-])cnc1/C=C1\\Oc2ccccc2C1=O")
"2.22 µM"
>>> reported_result("CC(C)=CCC[C@@H](C)C1=C(O)C(O)C(C)=C2N=C(c3ccccc3)C(=O)OC21 (stereo partly specified)")
"5.95 µM"
>>> reported_result("CC(=O)CC(=O)Nc1ccc2ccccc2c1")
"> 100 µM"
